The entries below come with measured Calculated Mean Volume 7 Days values attached.
System: prostate
RUN_DESCRIPTION: Intraprostatic infusion of S05A Peptides in rats: histological changes of cell death and prostate volume
Type: in vivo, Male Sprague-Dawley rats
CONDITIONS_USED: rat prostate volume from mean cross-sectional diameters, V=4/3π(D/2)^3; 1.0 mg/kg intraprostatic; 7 days
Where no end group is shown, it is not given here.
Report only the number, with the unit mm^3 understood.

SUBSTANCE | EXPERIMENTAL_SYSTEM | Calculated Mean Volume 7 Days, mm^3
IDQQVLSRIKLEI [S05A-7] | prostate | 357

Query: Tell me the measured Calculated Mean Volume 7 Days of KLEIKRCL [S05A-3] , please.
Reply: 463

Query: Find the recorded Calculated Mean Volume 7 Days belonging to VLSRIKLEIKRCL [S05A-6] and report it.
Reply: 408

Query: Requested read-out: Calculated Mean Volume 7 Days. Entry: IDQQVLSRI [S05A-2]
Reply: 165

Query: Data request, read-out Calculated Mean Volume 7 Days, for VLSRIK [S05A-4]
Reply: 333

Query: Returns the measured Calculated Mean Volume 7 Days for the input substance. Input: RIKLEIK [S05A-5]
Reply: 392
